Biological target: T1, human collagen type I, acid soluble, extracted from placenta (Sigma C7774) (human, UniProt P02452 162-1218; P08123 80-1119)
T1 construct: tissue extract, gelled and dried in wells; also called dried human collagen; h-Collagen
T1 sequence (P02452 162-1218 limits assumed, chain 1 of 2): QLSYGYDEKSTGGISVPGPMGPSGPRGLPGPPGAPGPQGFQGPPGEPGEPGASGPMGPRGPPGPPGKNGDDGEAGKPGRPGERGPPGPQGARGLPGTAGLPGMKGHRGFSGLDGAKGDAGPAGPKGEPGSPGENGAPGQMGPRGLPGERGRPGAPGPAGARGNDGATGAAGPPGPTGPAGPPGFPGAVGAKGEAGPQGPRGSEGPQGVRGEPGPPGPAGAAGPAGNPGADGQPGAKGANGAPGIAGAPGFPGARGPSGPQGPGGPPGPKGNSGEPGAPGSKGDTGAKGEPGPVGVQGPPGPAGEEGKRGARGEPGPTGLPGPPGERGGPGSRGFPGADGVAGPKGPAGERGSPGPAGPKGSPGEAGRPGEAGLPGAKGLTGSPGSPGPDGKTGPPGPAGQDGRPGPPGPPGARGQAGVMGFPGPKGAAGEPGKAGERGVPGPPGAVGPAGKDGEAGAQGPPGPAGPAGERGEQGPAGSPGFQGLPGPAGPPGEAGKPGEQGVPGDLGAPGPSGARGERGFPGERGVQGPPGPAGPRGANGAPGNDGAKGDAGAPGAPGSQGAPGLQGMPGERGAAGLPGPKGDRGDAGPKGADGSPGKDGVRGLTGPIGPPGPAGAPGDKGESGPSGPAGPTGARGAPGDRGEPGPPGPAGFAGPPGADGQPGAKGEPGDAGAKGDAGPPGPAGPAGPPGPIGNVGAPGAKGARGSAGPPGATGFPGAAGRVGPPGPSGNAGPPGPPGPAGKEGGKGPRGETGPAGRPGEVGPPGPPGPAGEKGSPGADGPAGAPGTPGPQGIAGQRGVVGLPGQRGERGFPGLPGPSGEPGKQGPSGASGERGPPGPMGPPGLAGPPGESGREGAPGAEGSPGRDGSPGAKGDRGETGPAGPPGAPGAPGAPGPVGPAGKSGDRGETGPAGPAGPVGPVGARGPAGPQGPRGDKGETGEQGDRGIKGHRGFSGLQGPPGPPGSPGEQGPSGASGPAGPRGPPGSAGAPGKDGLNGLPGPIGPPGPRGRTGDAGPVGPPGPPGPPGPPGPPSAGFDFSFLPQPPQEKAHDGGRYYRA
T1 sequence (P08123 80-1119 limits assumed, chain 2 of 2): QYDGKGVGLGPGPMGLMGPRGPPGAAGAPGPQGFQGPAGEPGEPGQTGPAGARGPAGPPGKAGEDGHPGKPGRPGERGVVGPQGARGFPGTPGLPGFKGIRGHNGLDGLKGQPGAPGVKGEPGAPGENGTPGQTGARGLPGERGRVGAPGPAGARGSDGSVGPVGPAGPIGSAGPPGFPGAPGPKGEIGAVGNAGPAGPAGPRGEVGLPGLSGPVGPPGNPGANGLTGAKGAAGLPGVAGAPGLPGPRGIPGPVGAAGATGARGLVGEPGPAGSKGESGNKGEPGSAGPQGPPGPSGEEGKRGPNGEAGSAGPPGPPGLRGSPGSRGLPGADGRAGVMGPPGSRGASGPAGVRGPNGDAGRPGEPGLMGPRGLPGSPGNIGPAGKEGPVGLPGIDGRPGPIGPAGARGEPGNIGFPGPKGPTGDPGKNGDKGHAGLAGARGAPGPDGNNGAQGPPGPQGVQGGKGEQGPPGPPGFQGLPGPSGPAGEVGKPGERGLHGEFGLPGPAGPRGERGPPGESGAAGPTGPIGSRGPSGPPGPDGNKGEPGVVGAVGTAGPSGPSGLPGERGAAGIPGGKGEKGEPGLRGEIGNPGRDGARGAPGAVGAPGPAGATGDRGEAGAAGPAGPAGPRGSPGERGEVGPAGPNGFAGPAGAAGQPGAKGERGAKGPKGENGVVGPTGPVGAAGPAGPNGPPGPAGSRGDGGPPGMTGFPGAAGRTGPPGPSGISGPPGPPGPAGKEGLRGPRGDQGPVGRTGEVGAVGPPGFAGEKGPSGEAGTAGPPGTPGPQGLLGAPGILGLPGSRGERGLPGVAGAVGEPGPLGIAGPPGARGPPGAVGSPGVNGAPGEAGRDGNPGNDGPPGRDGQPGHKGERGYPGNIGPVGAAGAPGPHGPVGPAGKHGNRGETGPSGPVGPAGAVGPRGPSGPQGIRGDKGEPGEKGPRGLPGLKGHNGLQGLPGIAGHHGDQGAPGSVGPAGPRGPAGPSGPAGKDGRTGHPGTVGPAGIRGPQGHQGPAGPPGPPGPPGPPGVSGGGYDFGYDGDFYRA
Assay: dried collagen assay
Method: An additional 90 μL is reserved in a HPLC glass vial as a measure of the total concentration.
Bridge positions count the residues as written; N and C are the ends. Square brackets hold non-standard residues; d marks the D form. Ends that are not written are not given here.
Result type: % bound (%)
Give bare numbers, in %.

// below: answered binders
>  <Binder>
GQWTCSGDEATWHCNYE (disulfide 5-14 (inferred); not fully specified (C-terminus), cyclic, disulfide) [SEQ ID NO 145]

>  <U>
%

>  <% bound>
68

$$$$
>  <Binder>
GQWTCSGDEYSWHCNY[dE] (disulfide 5-14 (inferred), cyclic, disulfide) [SEQ ID NO 125]

>  <U>
%

>  <% bound>
85

$$$$
>  <Binder>
GWQCFGASDWHCTWV (disulfide 4-12 (inferred), cyclic, disulfide) [SEQ ID NO 8]

>  <U>
%

>  <% bound>
9

$$$$
>  <Binder>
GQWTCAGDEYTWHCNYE (disulfide 5-14 (inferred), cyclic, disulfide) [SEQ ID NO 141]

>  <U>
%

>  <% bound>
87

$$$$
>  <Binder>
VWACRGGTTNWHCDL (disulfide 4-13 (inferred), cyclic, disulfide) [SEQ ID NO 41]

>  <U>
%

>  <% bound>
1

$$$$

Items follow; give % bound for each.
1. GWVCLQKGPKWVCDWD (disulfide 4-13 (inferred), cyclic, disulfide) [SEQ ID NO 46]
2. YHACYQAGCWIA (disulfide 4-9 (inferred), cyclic, disulfide) [SEQ ID NO 138]

1. 23
2. 2
